Experiment: Solubility of the compound in 0.5 ml of distilled water after 15 mins by RP-HPLC analysis
Assay type: physicochemical
readout_label: solubility at 0.25 h (µg/mL)

Solved entries:
compound_smiles: CC(=O)O[C@H]1C(=O)[C@@]2(C)[C@H]([C@H](OC(=O)c3ccccc3)[C@]3(O)C[C@H](OC(=O)[C@H](OC(=O)OCCSSCCOC(=O)CCC(=O)O)[C@@H](NC(=O)c4ccccc4)c4ccccc4)C(C)=C1C3(C)C)[C@]1(OC(C)=O)CO[C@@H]1C[C@@H]2O
solubility at 0.25 h / µg/mL: 80
--
compound_smiles: CC(=O)O[C@H]1C(=O)[C@]2(C)[C@@H](OC(=O)OCCSSCCNC(=O)CCC(=O)O)C[C@H]3OC[C@@]3(OC(C)=O)[C@H]2[C@H](OC(=O)c2ccccc2)[C@]2(O)C[C@H](OC(=O)[C@H](OC(=O)OCCSSCCNC(=O)CCC(=O)O)[C@@H](NC(=O)c3ccccc3)c3ccccc3)C(C)=C1C2(C)C
solubility at 0.25 h / µg/mL: 120

(P) CC(=O)O[C@H]1C(=O)[C@@]2(C)[C@H]([C@H](OC(=O)c3ccccc3)[C@]3(O)C[C@H](OC(=O)[C@H](OC(=O)OCCSSCCOC(=O)[C@@H]4CCCN4)[C@@H](NC(=O)c4ccccc4)c4ccccc4)C(C)=C1C3(C)C)[C@]1(OC(C)=O)CO[C@@H]1C[C@@H]2O
(Q) CC(=O)O[C@H]1C(=O)[C@@]2(C)[C@H]([C@H](OC(=O)c3ccccc3)[C@]3(O)C[C@H](OC(=O)[C@H](OC(=O)OCCSSCCO)[C@@H](NC(=O)c4ccccc4)c4ccccc4)C(C)=C1C3(C)C)[C@]1(OC(C)=O)CO[C@@H]1C[C@@H]2O
**Query** Return label of the item with the larger solubility at 0.25 h. Candidates: P , Q . # answer = label of selected item
**Result** P
